# Tested on: ICS
# ASSAY_PROTOCOL: qHTS profiling for inhibitors of Plasmodium falciparum proliferation (AID 504749); note: nearly all actives have a fitted effect of over 60% in size
# CONDITION_LABEL: P. falciparum in erythrocytes, SYBR Green DNA, 72 h; series mostly up to 28.7 µM
Records with an inconclusive call do not appear. Activity calls are given as the source filed them. Calls come from the whole dose curve; as a rule, active = well fitted inhibition curve with a large enough effect; inconclusive = small, poorly fitted or top-dose-only effect; inactive = flat fitted curve, though single readings scatter.
A correct response names exactly one class from active, inactive

Take a look at these entries with their results.
COMPOUND	ANSWER_LABEL
CC(CCC(=O)O)C1CCC2C3C(=O)C[C@@H]4CC(=O)CC[C@@]4(C)C3CC(=O)[C@]12C (some centres not stated)	inactive
OCC1O[C@H](Oc2ccc(O)cc2)C(O)C(O)C1O (some centres not stated)	inactive
COC(c1ccccc1)(c1ccccc1)C(Oc1nc(C)cc(C)n1)C(=O)O (configuration not stated)	inactive
C=C(NCc1ccccc1)c1ccccc1O	inactive

(Q) What classification did CCCCC/C(C=O)=C/c1ccccc1 end up with in this test?
(A) inactive

(Q) For O=C1NC(=O)C2C3C=CC(C3)C12 (configuration not stated) then?
(A) inactive

(Q) Now try CCCC(=O)Nc1c(I)cc(I)c(C[C@H](CC)C(=O)O)c1I .
(A) inactive

(Q) Here is the next compound: CC(=O)OCC(=O)[C@@]1(O)CCC2C3CCC4=CC(=O)C=CC4(C)C3C(O)C[C@]21C (some centres not stated)
(A) inactive

(Q) And then OC[C@@H](O)C(O[C@@H]1O[C@@H](CO)[C@H](O)[C@H](O)[C@H]1O)[C@H](O)[C@@H](O)CO (some centres not stated) , what is it?
(A) inactive

(Q) Now try CCC1OC(=O)C[C@@H](O)[C@H](C)[C@@H](OC2OC(C)CC(N(C)C)C2O)[C@@H](CC=O)C[C@@H](C)C(=O)/C=C/[C@]2(C)OC2C1C (some centres not stated) .
(A) active

(Q) What do we get for C[C@@H]1CCN(C(=O)[C@H](CCCNC(=N)N)NS(=O)(=O)c2cccc3c2NC[C@H](C)C3)[C@@H](C(=O)O)C1 ?
(A) inactive

(Q) What do you have for COC(=O)C1[C@@H](OC)C(OC(=O)COc2ccc(OC)cc2)C[C@@H]2CN3CCc4c([nH]c5cc(OC)ccc45)[C@H]3C[C@H]12 (some centres not stated) ?
(A) active

(Q) Would you mind doing CC1OC(OCC2OC(Oc3c(-c4ccc(OCCO)c(OCCO)c4)oc4cc(OCCO)cc(O)c4c3=O)C(O)C(O)C2O)[C@@H](O)C(O)C1O (some centres not stated) as well?
(A) inactive

(Q) Field entry: COc1cc2c(cc1O)CCN[C@@]21CS[C@H]2c3c(OC(C)=O)c(C)c4c(c3C(COC1=O)N1C2C2c3c(cc(C)c(OC)c3O)CC([C@@H]1O)N2C)OCO4 (some centres not stated)
(A) active

(Q) And what about the compound CC(=O)NC1[C@H]([C@H](O)[C@H](O)CO)OC(C(=O)O)=C[C@H]1N=C(N)N (some centres not stated) ?
(A) inactive

(Q) // repeat for CCC(C(=O)O)C1OC(C(C)C(O)C(C)C(=O)C(CC)C2OC3(C=CC(O)C4(CCC(C)(C5CCC(O)(CC)C(C)O5)O4)O3)C(C)CC2C)C(C)CC1C (configuration not stated) and report
(A) active

(Q) Cool, now O=[N+]([O-])O[C@H]1CO[C@H]2[C@@H]1OC[C@H]2O
(A) inactive
